Where do the numbers come from? From patent EP1388586A2.

# Target of assay: DRB1*0405 (DR4w15) (Homo sapiens, UniProt P01903+P01911, A100R/A169T/D86S/F76Y/I96L/K127E/L162R/M171V/N62H/P40V/Q125Y/R42H/S133A/S149N/S66Y/V115G/V209L/W38E)
# Protocol details: Class II peptide-binding assay, DR4w15
# Setup conditions: Table V B) Correct Predictions; read-out: Binding Capacity (IC50% nM) DR4w15
Ends that are not written are not given here.
Listing of recorded IC50 by entry.
Give the number; nM is assumed, so skip it.

> print(dat)
                         polymer.sequence  measurement.kind  scale.unit  observed.value
1  RVYQEPQVSPPQRAET [Peptide 1136.59.01a]              IC50          nM            3140
2      QEIDPLSYNYIPVNSN [Peptide 1136.55]              IC50          nM             271

### Prompt Name the reported IC50 value associated with the sequence LAAIIFLFGPPTALRS [Peptide 1136.28]
### Response 6670

----------
# Target of assay: DRB1*1101 (DR5w11) (Homo sapiens, UniProt P01903+P01911, A100R/A169T/A87E/I96F/K41T/L162R/M171V/P40S/Q125H/Q178H/Q39Y/Q99D/R42S/S66Y/T262R/V115G/W38E)
# Construct: used as sources of human HLA class II molecules; endogenous in cells; host or cells: SWEIG (EBV-transformed homozygous B cell line)
# Sequence (P01903 26-254, other chains not shown): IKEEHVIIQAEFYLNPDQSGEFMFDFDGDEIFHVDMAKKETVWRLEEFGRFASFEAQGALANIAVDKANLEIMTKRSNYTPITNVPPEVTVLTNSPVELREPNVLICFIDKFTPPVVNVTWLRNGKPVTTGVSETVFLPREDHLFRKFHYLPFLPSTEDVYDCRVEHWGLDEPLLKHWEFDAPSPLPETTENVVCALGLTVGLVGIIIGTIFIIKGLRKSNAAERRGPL
# Protocol details: Class II peptide-binding assay, DR5w11
# Setup conditions: read-out: DR5w11 nM (In IC50 Format); purified HLA DR5w11
Ends that are not written are not given here.
Measurement kind: pIC50
Notebook: values listed as pIC50 are -log10 of the concentration (mol/L).

Reference set (5 entries):
> print(dat)
                              substance  measurement.kind  observed.value
1   YASFVSQTAQRLFY-NH2 [Peptide 717.03]             pIC50            5.60
2   YARFASQTTLKAKT-NH2 [Peptide 717.56]             pIC50            7.68
3    AAFAAAAAQRLFA-NH2 [Peptide 761.01]             pIC50            6.26
4       YARFQSQTTLKAKT [Peptide 717.67]             pIC50            8.13
5  ASQKRPSQRSKYLATAST [Peptide 765.011]             pIC50            5.35

### Prompt Bench note: what pIC50 did NPVVHFFKNIVTPRTPPPS [Peptide 765.09] show?
### Response 7.73

----------
# Target of assay: DRB1*1101 (DR5w11) (Homo sapiens, UniProt P01903+P01911, A100R/A169T/A87E/I96F/K41T/L162R/M171V/P40S/Q125H/Q178H/Q39Y/Q99D/R42S/S66Y/T262R/V115G/W38E)
# Construct: used as sources of human HLA class II molecules; endogenous in cells; host or cells: SWEIG (EBV-transformed homozygous B cell line)
# Protocol details: Class II peptide-binding assay, DR5w11;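 note: competition by unlabeled test peptide against iodinated probe peptide binding to affinity-purified HLA-DR, class II amount titrated beforehand, half-maximal inhibitory concentration read as approximate Kd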
# Setup conditions: read-out: In IC50 Format DR5w11; Table VIII
pIC50: −log10 of the molar value. Ends that are not written are not given here.
Short version: pIC50 at least 6 is satisfied, less is not satisfied.

> print(dat)
                      polymer.sequence          label
1  FFKNIVTPRFFKNIVTPR [Peptide 613.03]  not satisfied
2   KYLEFISEAIIHVLHSR [Peptide 508.01]  not satisfied
3   KIAKMEKASSVFNVVNS [Peptide 526.01]      satisfied

Attention now shifts to the item below.
### Prompt Is reported pIC50 greater than or equal to 6 here: DVFKELKVHHANENI [Peptide 519.00]
### Response satisfied

----------
# Target of assay: DRB5*0101 (DR2w2a) (Homo sapiens, UniProt P01903+Q30154)
# Construct: used as sources of human HLA class II molecules; endogenous in cells; host or cells: GM3107 (EBV-transformed homozygous B cell line)
# Protocol details: Class II peptide-binding assay, DR2w2a (DR2w2B2);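 note: competitive binding assay: unlabeled peptide inhibiting binding of a radiolabeled probe peptide to purified DR molecules at pH 7.0, IC50 approximating Kd, lower means stronger binding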
# Setup conditions: read-out: DR2w2B2 nM; Table VIII, In IC50 Format
Square brackets hold non-standard residues; d marks the D form. Peptide text beside a SMILES is read from it.
Measurement kind: pIC50
pIC50 here: minus log base 10 of the concentration, concentration in moles per litre.

### Prompt Can you share its pIC50? I mean this compound: C[C@H](NC(=O)[C@H](N)Cc1ccc(O)cc1)C(=O)N[C@@H](C)C(=O)N[C@@H](Cc1ccccc1)C(=O)N[C@@H](C)C(=O)N[C@@H](C)C(=O)N[C@@H](C)C(=O)N[C@@H](C)C(=O)N1CCC[C@H]1C(=O)N[C@@H](CCCCN)C(=O)N[C@@H](C)C(=O)N[C@@H](C)C(=O)N[C@@H](C)C(=O)N[C@H](C)C(N)=O [Peptide 828.06] (H-[dY]AAFAAAAPKAAA[dA]-NH2)
### Response 7.72

----------
# Target of assay: DRB1*0701 (DR7) (Homo sapiens, UniProt P01903+P01911, A100R/A102G/A103Q/D57E/D86V/E43K/F76Y/K127E/L162R/M171V/P40G/Q125H/Q99D/R33Q/R42Y/R54Q/S133A/S66F/T210M/V115G/Y107V/Y59L/Y89S)
# Protocol details: Class II peptide-binding assay, DR7;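 note: unlabeled peptides compete with an iodinated probe peptide for binding to affinity-purified HLA-DR at neutral pH, DR amount titered to bind a small tracer fraction, IC50 approximating Kd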
# Setup conditions: read-out: DR7 nM (In IC50 Format); purified HLA DR7
Ends that are not written are not given here.
Reported pIC50 values are given for each entry in this list.
The quantity pIC50 is defined as the negative base-10 logarithm of the molar concentration.

> print(dat)
                              substance  observed.value
1   YARFQSQATLKAKT-NH2 [Peptide 717.53]            5.45
2  RLANSLVHSSNNFGAILSS [Peptide 735.03]            6.26
3       YARFQRQTTLKIAT [Peptide 716.01]            7.37
4  LMAMGITDVFSSSANLSGI [Peptide 705.08]            6.39
5   YARFASQTTLKAKT-NH2 [Peptide 782.02]            5.20

Please look at the following substance next.
### Prompt Query (substance): YARFQSQTTLKAAT-NH2 [Peptide 717.49] ; field requested: pIC50
### Response 5.38

----------
# Target of assay: DRB1*0901 (DR9) (Homo sapiens, UniProt P01903+P01911, A100R/A103E/D57H/D86V/F55Y/F60I/F76Y/I96F/K127E/L162R/M171V/P40D/Q125H/Q99R/R33Q/R42F/S133A/S66N/T210M/V115G/W38K/Y107V/Y59G/Y89S)
# Construct: used as sources of human HLA class II molecules; endogenous in cells; host or cells: HTC9074 (EBV-transformed homozygous B cell line); gift of Dr. Paul Harris
# Protocol details: Class II peptide-binding assay, DR9
# Setup conditions: Table V A) Non Predictions; read-out: Binding Capacity DR9
Ends that are not written are not given here.
Measurement kind: IC50

> print(dat)
                     polymer.sequence  observed.value
1  LFHYYFLSEKAPGSTV [Peptide 1136.04]         2880 nM

// next entry
### Prompt GET /values?readout=IC50&item= GPPTALRSFGFAFGYM [Peptide 1136.29]
### Response 183 nM

----------
# Target of assay: DRB10404 (DR4w14) (Homo sapiens, UniProt P01903+P01911, A100R/A169T/F76Y/I96L/K127E/L162R/M171V/N62H/P40V/Q125Y/R42H/S133A/S149N/S66Y/V209L/W38E)
# Construct: used as sources of human HLA class II molecules; endogenous in cells; host or cells: BIN40 (EBV-transformed homozygous B cell line)
# Protocol details: Class II peptide-binding assay, DR4w14;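 note: unlabeled peptides compete with a radiolabeled probe for binding to affinity-purified HLA-DR, neutral pH, class II amount titrated to bind a small fraction of label, IC50 approximates Kd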
# Setup conditions: read-out: DR4w14 nM (In IC50 Format); purified HLA DR4w14
Ends that are not written are not given here.
pIC50 values, listed per item
Remember the convention: pIC50 equals -log10 of concentration in molar.

Solved cases below.
> print(dat)
                               substance  observed.value
1   LVHSSNNFGAILSSTNVGS [Peptide 735.04]            7.90
2    YARFQSATTLKAKT-NH2 [Peptide 717.54]            8.14
3    YARYQSQTTLKAKT-NH2 [Peptide 717.42]            7.18
4  LVEALYLVSGERGFFYTPKT [Peptide 734.03]            6.15
5    YARFQSQTTLKAKA-NH2 [Peptide 717.48]            8.28
6    KYLATASTMDHARHGFLP [Peptide 765.02]            7.06

### Prompt I would be grateful if you could share the reported pIC50 for YASFVSQTAQRLFY-NH2 [Peptide 717.03] .
### Response 5.20
